Numbers sourced from patent US20150037348A1.

Below is a list of entries, each paired with its recorded pIC50 value.
STUDY_SYSTEM: T1, recombinant human IL-12 (rhIL-12) (human, UniProt P29459 23-219; P29460 23-328)
T1 construct: disulfide-linked p35/p40 heterodimer (p70); also called IL-12 p70; rec. human IL12
T1 sequence (looked up) 1: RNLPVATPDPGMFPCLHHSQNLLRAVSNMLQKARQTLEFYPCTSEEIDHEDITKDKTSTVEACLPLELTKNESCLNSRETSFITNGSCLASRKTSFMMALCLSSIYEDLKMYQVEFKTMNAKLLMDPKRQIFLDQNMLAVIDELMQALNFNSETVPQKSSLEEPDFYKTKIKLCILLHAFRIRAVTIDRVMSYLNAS
T1 sequence (looked up) 2: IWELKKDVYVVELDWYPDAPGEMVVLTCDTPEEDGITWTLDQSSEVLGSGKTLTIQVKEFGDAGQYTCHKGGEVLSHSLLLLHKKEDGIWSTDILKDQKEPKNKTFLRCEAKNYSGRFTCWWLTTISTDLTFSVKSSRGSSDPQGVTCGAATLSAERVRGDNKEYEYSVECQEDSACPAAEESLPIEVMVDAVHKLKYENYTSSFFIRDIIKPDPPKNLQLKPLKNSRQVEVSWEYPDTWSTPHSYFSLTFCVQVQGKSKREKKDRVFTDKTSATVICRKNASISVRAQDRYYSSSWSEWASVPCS
METHOD_NOTES: receptor binding assay, 125I-hIL-12 on PHA blasts
pIC50: −log10 of the molar value.
MEASURED_PROPERTY: pIC50

[[record]]
binder = "A5 (scFv, V domains shown, scFv clone) VH: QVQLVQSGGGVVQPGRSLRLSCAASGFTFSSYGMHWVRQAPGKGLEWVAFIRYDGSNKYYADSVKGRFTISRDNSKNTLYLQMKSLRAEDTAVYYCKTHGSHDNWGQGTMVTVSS VL: SYVLTQPPSVSGTPGQRVTISCSGGRSNIGSNTVKWYQQLPGTAPKLLIYGNDQRPSGVPDRFSGSKSGTSASLAITGVQAEDEADYYCQSYDRGTHPSMLFGTGTKVTVL"
observed_value = 10.18

[[record]]
binder = "Y61 IgG germline (antibody, V domains shown) VH: QVQLVESGGGVVQPGRSLRLSCAASGFTFSSYGMHWVRQAPGKGLEWVAFIRYDGSNKYYADSVKGRFTISRDNSKNTLYLQMNSLRAEDTAVYYCKTHGSHDNWGQGTMVTVSS VL: QSVLTQPPSVSGAPGQRVTISCSGSRSNIGSNTVKWYQQLPGTAPKLLIYGNDQRPSGVPDRFSGSKSGTSASLAITGLQAEDEADYYCQSYDRGTHPALLFGTGTKVTVL"
observed_value = 10.80

[[record]]
binder = "AO3 IgG germline (antibody, V domains shown, IgG with germline frameworks as named; only the CDR3s are tied to it) VH: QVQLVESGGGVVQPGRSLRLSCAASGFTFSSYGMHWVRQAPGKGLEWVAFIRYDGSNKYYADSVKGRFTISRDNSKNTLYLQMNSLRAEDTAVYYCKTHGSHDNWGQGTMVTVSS VL: QSVLTQPPSVSGAPGQRVTISCSGSRSNIGSNTVKWYQQLPGTAPKLLIYGNDQRPSGVPDRFSGSKSGTSASLAITGLQAEDEADYYCQSYDRGTHPLTMFGTGTKVTVL"
observed_value = 10.46

[[record]]
binder = "Y45 (scFv, V domains shown, scFv clone) VH: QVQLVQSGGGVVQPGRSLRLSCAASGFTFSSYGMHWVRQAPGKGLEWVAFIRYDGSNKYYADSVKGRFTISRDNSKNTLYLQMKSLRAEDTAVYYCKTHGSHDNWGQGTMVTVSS VL: SYVLTQPPSVSGTPGQRVTISCSGGRSNIGSNTVKWYQQLPGTAPKLLIYGNDQRPSGVPDRFSGSKSGTSASLAITGVQAEDEADYYCQSYDRGTDPAIVFGTGTKVTVL"
observed_value = 10.40

